- MEASURED_ON: MLH1-PMS2
- EXPERIMENT_NOTES: Comparison of MMR restoration with theoretical binding curves of peptide to protein
- Design: species or system human
- TEST_PARAMETERS: theoretical binding curves at 11.1 nM MLH1; not a direct binding measurement; read-out: KD whose theoretical fraction of peptide binding to a protein corresponds to the degree of MMR restoration
No end group written: not given here.
READOUT_LABEL: Kd

Q: Report Kd for SGSSDKVYAHQMVRTDSREQKLDAFLQPLSKP [ConMot-32] please.
Result: ~7.5 µM

---

- MEASURED_ON: MLH1-ΔConMot-PMS2 (Homo sapiens, UniProt P40692+P54278, DEL377-396)
- Construct: The pcDNA3 expression vector containing the entire open reading frame of human MLH1; expressed in transfected cells; host or cells: HEK293T (MLH1-deficient), transiently co-transfected
- Sequence (P40692 with tags, fused parts or gaps DEL377-396): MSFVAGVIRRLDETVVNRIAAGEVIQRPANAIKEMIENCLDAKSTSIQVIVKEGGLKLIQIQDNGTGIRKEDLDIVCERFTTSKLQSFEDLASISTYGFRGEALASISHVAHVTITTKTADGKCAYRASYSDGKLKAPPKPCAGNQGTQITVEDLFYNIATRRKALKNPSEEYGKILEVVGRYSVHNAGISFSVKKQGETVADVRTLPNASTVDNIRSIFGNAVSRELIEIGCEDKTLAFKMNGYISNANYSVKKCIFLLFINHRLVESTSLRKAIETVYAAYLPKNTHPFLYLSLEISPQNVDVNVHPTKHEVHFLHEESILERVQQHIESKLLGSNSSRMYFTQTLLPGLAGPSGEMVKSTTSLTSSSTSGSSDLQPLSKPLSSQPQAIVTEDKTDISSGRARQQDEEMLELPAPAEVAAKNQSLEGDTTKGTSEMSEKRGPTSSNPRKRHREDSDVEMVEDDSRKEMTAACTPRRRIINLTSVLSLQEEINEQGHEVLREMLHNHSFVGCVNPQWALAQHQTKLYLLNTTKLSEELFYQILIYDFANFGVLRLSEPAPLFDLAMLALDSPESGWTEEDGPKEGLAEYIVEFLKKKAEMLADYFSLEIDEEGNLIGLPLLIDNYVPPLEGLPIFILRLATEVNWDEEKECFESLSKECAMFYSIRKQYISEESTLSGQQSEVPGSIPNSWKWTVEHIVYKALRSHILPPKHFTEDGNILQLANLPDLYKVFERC
- Sequence (P54278 whole entry partner): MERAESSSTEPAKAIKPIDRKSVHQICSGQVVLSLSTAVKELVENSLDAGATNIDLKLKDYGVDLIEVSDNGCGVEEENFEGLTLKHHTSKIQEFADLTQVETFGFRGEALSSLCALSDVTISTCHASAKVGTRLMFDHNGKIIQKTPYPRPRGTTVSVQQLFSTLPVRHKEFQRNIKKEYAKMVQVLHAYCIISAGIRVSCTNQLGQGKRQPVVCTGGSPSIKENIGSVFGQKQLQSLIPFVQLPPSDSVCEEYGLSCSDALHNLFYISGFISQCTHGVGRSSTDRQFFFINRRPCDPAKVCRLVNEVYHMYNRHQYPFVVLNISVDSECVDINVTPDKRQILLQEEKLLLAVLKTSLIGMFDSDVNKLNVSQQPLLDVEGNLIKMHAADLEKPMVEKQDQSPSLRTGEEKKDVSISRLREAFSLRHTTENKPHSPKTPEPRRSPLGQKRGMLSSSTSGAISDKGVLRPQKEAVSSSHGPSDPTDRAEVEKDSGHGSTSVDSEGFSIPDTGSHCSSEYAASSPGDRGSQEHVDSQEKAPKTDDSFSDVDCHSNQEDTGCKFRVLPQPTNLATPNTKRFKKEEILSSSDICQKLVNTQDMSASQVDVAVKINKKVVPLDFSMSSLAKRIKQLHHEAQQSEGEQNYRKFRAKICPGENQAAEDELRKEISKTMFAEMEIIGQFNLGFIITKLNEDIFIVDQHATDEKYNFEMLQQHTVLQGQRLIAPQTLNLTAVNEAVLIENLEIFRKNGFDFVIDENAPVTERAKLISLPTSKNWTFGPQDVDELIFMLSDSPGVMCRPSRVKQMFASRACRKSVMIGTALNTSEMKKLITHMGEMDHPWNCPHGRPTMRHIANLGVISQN
- EXPERIMENT_NOTES: DNA mismatch repair (MMR) complementation assay with peptide, MLH1-ΔConMot variant
- Format: biochemical
- TEST_PARAMETERS: ConMot-32, concentration range 1–75 μM, approximately 280 fmol MLH1 (11.1 nM), 37°C, 15 min; >3 experiments; read-out: peptide concentration at which 50% activation was achieved (MMR)
No end group written: not given here.
READOUT_LABEL: EC50 (µM)
Answer in µM, number only, no unit symbol.

Q: Report EC50 for SGSSDKVYAHQMVRTDSREQKLDAFLQPLSKP [ConMot-32] please.
Result: 7.5

Where do the numbers come from? From paper PMC10325900.
